Biological target: UniProt:O15550
Sequence (O15550 whole entry): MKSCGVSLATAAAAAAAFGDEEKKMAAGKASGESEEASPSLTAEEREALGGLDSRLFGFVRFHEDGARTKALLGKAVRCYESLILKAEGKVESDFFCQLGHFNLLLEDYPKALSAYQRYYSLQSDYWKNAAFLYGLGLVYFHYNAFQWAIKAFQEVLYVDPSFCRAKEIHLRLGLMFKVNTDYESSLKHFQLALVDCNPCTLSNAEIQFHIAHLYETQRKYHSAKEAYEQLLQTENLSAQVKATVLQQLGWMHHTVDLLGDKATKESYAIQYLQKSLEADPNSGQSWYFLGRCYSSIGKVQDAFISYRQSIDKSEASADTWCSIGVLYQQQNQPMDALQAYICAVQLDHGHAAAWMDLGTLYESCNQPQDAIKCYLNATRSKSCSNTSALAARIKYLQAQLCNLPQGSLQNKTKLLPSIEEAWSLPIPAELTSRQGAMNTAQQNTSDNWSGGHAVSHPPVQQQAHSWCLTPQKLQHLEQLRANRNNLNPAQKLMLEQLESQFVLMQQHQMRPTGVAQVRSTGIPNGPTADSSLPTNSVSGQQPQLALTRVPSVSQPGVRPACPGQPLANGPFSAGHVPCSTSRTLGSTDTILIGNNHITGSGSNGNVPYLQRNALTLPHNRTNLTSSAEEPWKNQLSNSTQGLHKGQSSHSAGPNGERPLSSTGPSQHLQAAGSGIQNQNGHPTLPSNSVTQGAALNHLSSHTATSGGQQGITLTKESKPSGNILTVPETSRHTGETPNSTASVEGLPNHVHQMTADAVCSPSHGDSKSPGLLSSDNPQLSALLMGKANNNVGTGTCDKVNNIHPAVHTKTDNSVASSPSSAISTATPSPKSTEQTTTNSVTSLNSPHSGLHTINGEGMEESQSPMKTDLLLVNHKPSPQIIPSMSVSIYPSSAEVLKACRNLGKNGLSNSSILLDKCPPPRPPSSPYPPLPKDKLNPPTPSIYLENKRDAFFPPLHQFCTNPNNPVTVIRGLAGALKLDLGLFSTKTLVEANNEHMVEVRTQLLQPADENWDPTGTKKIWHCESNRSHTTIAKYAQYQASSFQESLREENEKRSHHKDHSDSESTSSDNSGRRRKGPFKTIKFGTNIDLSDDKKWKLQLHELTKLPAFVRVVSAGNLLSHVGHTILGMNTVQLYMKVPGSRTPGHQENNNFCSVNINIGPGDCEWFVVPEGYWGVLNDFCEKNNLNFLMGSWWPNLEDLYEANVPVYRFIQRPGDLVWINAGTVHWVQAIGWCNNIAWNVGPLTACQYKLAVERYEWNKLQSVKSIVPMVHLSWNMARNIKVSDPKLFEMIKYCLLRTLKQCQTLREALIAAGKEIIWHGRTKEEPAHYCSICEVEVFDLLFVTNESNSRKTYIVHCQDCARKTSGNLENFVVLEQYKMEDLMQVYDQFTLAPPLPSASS
Test: Inhibition of KDM6A
Experimental Endpoint: IC50 (µM)
Numeric only. Scale: µM

Please look at O=C(O)c1ccnc(C(=O)O)c1 and tell me its recorded IC50 on UniProt:O15550.
177
